# Protocol summary: NCI Yeast Anticancer Drug Screen. Data for the mlh1 rad18 strain (AID 175)
# Measurement setup: S. cerevisiae mlh1 rad18 strain growth inhibition; at 50.0 µM; active compounds read high
Compounds without any hit were thinned out: in the full panel of roughly 79,000, 15% have a hit.
Consider the following molecules; for each one, report its growth inhibition.
Give bare numbers, in %.

Would you please look over these solved cases?
1. CCC1SC(C)C(=O)NC1=O (configuration not stated) :: 37.1
2. Cc1nc(N)sc1C(=O)/C=C/c1ccc([N+](=O)[O-])cc1 :: 9.45

Parameter requested: growth inhibition. Apply to each item below.
1. N#CCc1c(Cl)ccc(Cl)c1Cl
2. Oc1ccc(-c2csc(Nc3ccccn3)n2)cc1O
3. C=CCN=C1NC(=O)C(CC(=O)Nc2ccc(C)cc2)S1 (configuration not stated)
4. CN(C)C(=O)CC(O)c1ccccc1 (configuration not stated)
5. COC(=O)C(=O)c1c(C(=O)OC)nc2nnc(N)n2c1C1CC1
6. Cc1nc(N)nc(C)c1Cl

1: 39.5; 2: 98.8; 3: 7.65; 4: 4.75; 5: 4.25; 6: -1.85

# return growth inhibition for each item in the list
1. Cc1cc(-c2ccc([NH2+][B-](F)(F)F)c(C)c2)ccc1[NH2+][B-](F)(F)F
2. COc1ccc(OC)c(C(=O)C2=C(c3cc(OC)ccc3OC)CCC2)c1
3. CNc1ccccc1C(=O)N/N=C/C1CCCCC1
4. CC(C)=CCNc1ncnc2c1ncn2CCC(=O)OC(C)(C)C

[-11.2, 28.4, 8.35, 1.55]

====

Please provide measured growth inhibition for the entries that follow.
# Protocol summary: NCI Yeast Anticancer Drug Screen. Data for the mlh1 rad18 strain (AID 175)
# Measurement setup: S. cerevisiae mlh1 rad18 strain growth inhibition; at 50.0 µM; active compounds read high
The panel holds about 79,000 compounds, 15% with a hit somewhere; the sample as a whole holds those more often.
One number for each entry, in %.

Worked examples, 4 molecules total:
1. CCOC(=O)c1ccccc1OCc1ccccc1 :: 14.9
2. O=C(NC(=O)C(F)(F)C(F)(F)F)Nc1cc(F)ccc1F :: -29
3. C[C@@H]1CC[C@]2(C)C3(C)CC[C@]2(OC3=O)[C@@]12CC(c1ccoc1)OC2=O (stereo not given in full) :: -42.3
4. CCCCCCCCCCCCCCCC(=O)Oc1ccc(/C(CC)=C(/CC)c2ccc(OC(=O)CCCCCCCCCCCCCCC)cc2)cc1 :: 4.25

Consider the record given below.
// Input: C[C@]12CCC(=O)C=C1CC[C@@H]1C2CC[C@]2(C)NC(=O)C(C#N)CC12 (stereo not given in full) . Output its growth inhibition only. -9.6

====

Record form. Attribute: growth inhibition. Fill in for each entry.
# Protocol summary: NCI Yeast Anticancer Drug Screen. Data for the mlh1 rad18 strain (AID 175)
# Measurement setup: S. cerevisiae mlh1 rad18 strain growth inhibition; at 50.0 µM; active compounds read high
About 79,000 compounds went through this panel and 15% of them were active in at least one assay; those are over-represented in the sample as a whole. Activity calls are given as the source filed them. No stated cut-off is given here; in the data, active means growth inhibition above about 70%; inactive means the rest.

The examples below pair each entry with its known result.
1) COc1ccc2oc3c(C)cc4c(OC)nnc(OC)c4c3c2c1 :: -12.8% (inactive)
2) CS(=O)(=O)CC1=NC(=N)N=C1CS(C)(=O)=O :: 2.1% (inactive)
3) CC(=O)Nc1cc(Cl)ccc1C :: 24.1% (inactive)
4) COc1ccc(OC)c(/C=C/C2=C(C)C(=O)CC(c3cc(OC)ccc3OC)C2C)c1 (configuration not stated) :: 4.3% (inactive)

Give growth inhibition for each of the items listed below.
1. O=c1[nH]cc(F)c(=S)[nH]1
2. N=C(N)SCc1cn2ccccc2n1
3. COc1cc2ccnc(CCCc3nccc4cc(OC)c(OC)cc34)c2cc1OC
4. O=C1C(c2[nH]c3ccc(F)cc3c2O)=Nc2ccc(F)cc21

1: -23.9% (inactive); 2: -50.8% (inactive); 3: -9.3% (inactive); 4: 19.1% (inactive)

Record growth inhibition per entry; entries follow.
1. O=C(Oc1c([N+](=O)[O-])cc(-c2ccccc2)cc1[N+](=O)[O-])c1ccccc1
2. COc1ccc(Cc2cc3c(cc2OC(C)=O)OCO3)cc1
3. CCCS(=O)(=O)N1CC(C)OC(C)C1 (configuration not stated)
4. CCN(C(=O)CCl)c1ccccc1

1. 35.6% (inactive)
2. 7.25% (inactive)
3. 3.2% (inactive)
4. 14.2% (inactive)
